- System: MDCK-LE monolayers
- experiment: Cell-based transwell assay with MDCK-low efflux monolayers (passive permeability)
- Type: in vitro ADME
- condition_info: MDCK-LE monolayers
Starred links: 1 amine or outer side, 2 acyl side, 3 side chain; linkers in the order of their positions; H or OH if unused. Positions of bridges follow the written chain, without caps; N, C: chain ends. Non-standard residues stand in square brackets, D forms with d. Residues, ends and D or L forms follow the SMILES beside them. ξ: configuration not given here. *: point of attachment. Leu(3R-O(AcLeu(3R-OH))) = CC(=O)N[C@H](C(=O)O[C@H](C(C)C)[C@H](N)C(=O)O)[C@H](O)C(C)C; Leu(3R-OH,Nα-propionyl) = CCC(=O)N[C@H](C(=O)*)[C@H](O)C(C)C; X1 = CC(C)[C@@H](O[*:3])[C@H](N[*:1])C(=O)[*:2]; X5 = CSC[C@@H](O[*:3])[C@H](N[*:1])C(=O)[*:2]; X3 = CC(C)C(O[*:3])C(N[*:1])C(=O)[*:2]; ξLeu(3ξ-OH) = CC(C)C(O)C(N)C(=O)O; NMeT = CN[CH](C(=O)O)[CH](C)O; dPhLac = O=C(O)[C@H](O)Cc1ccccc1; X2 = CC(C)C=C(N[*:1])C(=O)[*:2]; PhLac = O=C(O)[CH](O)Cc1ccccc1; NMeA = CN[CH](C)C(=O)O; NMeDha = C=C(NC)C(=O)O
Please note: % Recovery exactly at 80% is not fulfilled. Only values below 80% get fulfilled.

• CCC(=O)N[C@H](C(=O)O[C@H](C(C)C)[C@@H]1NC(=O)[C@H](C)N(C)C(=O)[C@H](C)NC(=O)[C@H](C)N(C)C(=O)[C@@H](Cc2ccccc2)OC(=O)[C@@H](NC(C)=O)[C@@H](C(C)C)OC(=O)[C@H]([C@@H](C)OC)N(C)C1=O)[C@H](O)C(C)C [Compound 10] (Ac-[X1][dPhLac][NMeA]A[NMeA][X1](Leu(3R-OH,Nα-propionyl))[NMeT](Me); ester 1-C) = fulfilled
• C=C1C(=O)NC(C)C(=O)N(C)C(C)C(=O)NC(C(O)C(C)C)C(=O)N(C)C(C(C)OC)C(=O)OC(C)C(NC(C)=O)C(=O)OC(Cc2ccccc2)C(=O)N1C (stereo not drawn) [Compound 15] (Ac-T[PhLac][NMeDha]A[NMeA][ξLeu(3ξ-OH)][NMeT](Me); ester 1-C; configuration not given here) = not fulfilled
• C=C1C(=O)N[C@@H](C)C(=O)N(C)[C@@H](C)C(=O)N[C@@H]([C@H](OC(=O)[C@@H](NC(=O)CC)[C@H](O)C(C)C)C(C)C)C(=O)N(C)[C@@H]([C@@H](C)OC)C(=O)O[C@H](CSC)[C@H](NC(C)=O)C(=O)O[C@H](Cc2ccccc2)C(=O)N1C [Compound 2] (Ac-[X5][dPhLac][NMeDha]A[NMeA][X1](Leu(3R-OH,Nα-propionyl))[NMeT](Me); ester 1-C) = fulfilled
• C=C(C(=O)N[C@@H](C)C(=O)N(C)[C@@H](C)C(=O)N[C@H](C(=O)N(C)[C@H](C(=O)O)[C@@H](C)OC)[C@H](OC(=O)[C@@H](NC(=O)CC)[C@H](O)C(C)C)C(C)C)N(C)C(=O)[C@@H](Cc1ccccc1)OC(=O)C(=CC(C)C)NC(C)=O [Compound 5] (Ac-[X2][dPhLac][NMeDha]A[NMeA][X1](Leu(3R-OH,Nα-propionyl))[NMeT](Me)-OH) = not fulfilled
• C=C1C(=O)N[C@@H](C)C(=O)N(C)[C@@H](C)C(=O)N[C@@H]([C@@H](CSC)OC(=O)[C@@H](NC(=O)CC)[C@H](O)C(C)C)C(=O)N(C)[C@@H]([C@@H](C)OC)C(=O)O[C@H](C(C)C)[C@H](NC(C)=O)C(=O)O[C@H](Cc2ccccc2)C(=O)N1C [Compound 3] (Ac-[X1][dPhLac][NMeDha]A[NMeA][X5](Leu(3R-OH,Nα-propionyl))[NMeT](Me); ester 1-C) = not fulfilled
• C=C1C(=O)N[C@@H](C)C(=O)N(C)[C@@H](C)C(=O)N[C@@H]([C@H](OC(=O)[C@@H](NC(C)=O)[C@H](O)C(C)C)C(C)C)C(=O)N(C)[C@@H]([C@@H](C)OC)C(=O)O[C@H](C)[C@H](NC(C)=O)C(=O)O[C@H](Cc2ccccc2)C(=O)N1C [Compound 13] (Ac-T[dPhLac][NMeDha]A[NMeA][Leu(3R-O(AcLeu(3R-OH)))][NMeT](Me); ester 1-C) = not fulfilled
• C=C1C(=O)N[C@@H](C)C(=O)N(C)[C@@H](C)C(=O)N[C@@H]([C@H](OC(=O)[C@@H](NC(=O)CC)[C@H](O)C(C)C)C(C)C)C(=O)N(C)[C@@H]([C@@H](C)OC)C(=O)O[C@H](C)[C@H](NC(C)=O)C(=O)O[C@H](Cc2ccccc2)C(=O)N1C [Compound 14] (Ac-T[dPhLac][NMeDha]A[NMeA][X1](Leu(3R-OH,Nα-propionyl))[NMeT](Me); ester 1-C) = not fulfilled
• C=C1C(=O)NC(C)C(=O)N(C)C(C)C(=O)NC(C(O)C(C)C)C(=O)N(C)C(C(C)OC)C(=O)OC(C(C)C)C(NC(C)=O)C(=O)OC(Cc2ccccc2)C(=O)N1C (stereo not drawn) [Compound 12] (Ac-[X3][PhLac][NMeDha]A[NMeA][ξLeu(3ξ-OH)][NMeT](Me); ester 1-C; configuration not given here) = not fulfilled
